These entries and their values trace back to patent US20220169598A1.

Measured IC50 accompanies every entry in the list below.
# ASSAY TARGET: HDAC7 (Homo sapiens, UniProt Q8WUI4)
# Sequence (Q8WUI4 whole entry): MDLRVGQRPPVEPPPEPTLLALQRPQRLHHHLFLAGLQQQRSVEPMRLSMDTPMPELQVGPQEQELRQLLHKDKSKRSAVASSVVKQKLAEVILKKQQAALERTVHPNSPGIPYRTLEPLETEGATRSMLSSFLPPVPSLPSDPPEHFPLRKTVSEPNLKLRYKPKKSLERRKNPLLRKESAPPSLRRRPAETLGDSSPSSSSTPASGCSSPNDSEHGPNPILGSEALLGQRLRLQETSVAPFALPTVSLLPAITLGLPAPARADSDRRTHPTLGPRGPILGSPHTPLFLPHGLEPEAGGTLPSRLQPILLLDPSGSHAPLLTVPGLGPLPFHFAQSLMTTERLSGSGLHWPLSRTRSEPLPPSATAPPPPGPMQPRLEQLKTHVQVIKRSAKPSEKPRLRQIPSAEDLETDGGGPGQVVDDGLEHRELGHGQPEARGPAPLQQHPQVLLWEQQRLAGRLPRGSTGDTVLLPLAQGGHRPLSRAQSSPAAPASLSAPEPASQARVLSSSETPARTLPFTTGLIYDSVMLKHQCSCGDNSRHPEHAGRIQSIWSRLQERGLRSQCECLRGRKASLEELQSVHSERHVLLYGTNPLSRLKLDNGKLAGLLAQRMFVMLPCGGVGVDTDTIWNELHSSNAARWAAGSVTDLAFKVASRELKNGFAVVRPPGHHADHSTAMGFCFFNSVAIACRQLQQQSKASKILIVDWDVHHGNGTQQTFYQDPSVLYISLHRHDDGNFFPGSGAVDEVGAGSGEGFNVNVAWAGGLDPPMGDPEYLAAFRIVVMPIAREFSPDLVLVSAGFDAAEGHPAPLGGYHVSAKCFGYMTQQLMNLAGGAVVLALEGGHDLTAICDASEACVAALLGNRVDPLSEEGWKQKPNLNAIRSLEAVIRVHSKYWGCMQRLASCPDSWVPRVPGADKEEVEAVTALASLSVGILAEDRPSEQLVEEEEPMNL
# TEST METHOD NOTES: in vitro activity-based HDAC assay
# PROTOCOL CONDITIONS: human HDAC isoform panel, Table 1

Observe how each entry below is paired with its result.
O=C(NO)c1ccc(CN(Cc2cccnc2)S(=O)(=O)c2cc(F)c(F)c(F)c2F)cc1; > 1000 nM
CC(C)N(Cc1ccc(C(=O)NO)cc1F)S(=O)(=O)c1cc(F)c(F)c(F)c1F; > 1000 nM

Moving on to another compound below.
// IC50 lookup, key: `O=C(NO)c1ccc(CN(C2CC2)S(=O)(=O)c2cc(F)c(F)c(F)c2F)cc1` > 1000 nM

###

Measured IC50 accompanies every entry in the list below.
# ASSAY TARGET: HDAC9 (Homo sapiens)
# Sequence (Q9UKV0 whole entry): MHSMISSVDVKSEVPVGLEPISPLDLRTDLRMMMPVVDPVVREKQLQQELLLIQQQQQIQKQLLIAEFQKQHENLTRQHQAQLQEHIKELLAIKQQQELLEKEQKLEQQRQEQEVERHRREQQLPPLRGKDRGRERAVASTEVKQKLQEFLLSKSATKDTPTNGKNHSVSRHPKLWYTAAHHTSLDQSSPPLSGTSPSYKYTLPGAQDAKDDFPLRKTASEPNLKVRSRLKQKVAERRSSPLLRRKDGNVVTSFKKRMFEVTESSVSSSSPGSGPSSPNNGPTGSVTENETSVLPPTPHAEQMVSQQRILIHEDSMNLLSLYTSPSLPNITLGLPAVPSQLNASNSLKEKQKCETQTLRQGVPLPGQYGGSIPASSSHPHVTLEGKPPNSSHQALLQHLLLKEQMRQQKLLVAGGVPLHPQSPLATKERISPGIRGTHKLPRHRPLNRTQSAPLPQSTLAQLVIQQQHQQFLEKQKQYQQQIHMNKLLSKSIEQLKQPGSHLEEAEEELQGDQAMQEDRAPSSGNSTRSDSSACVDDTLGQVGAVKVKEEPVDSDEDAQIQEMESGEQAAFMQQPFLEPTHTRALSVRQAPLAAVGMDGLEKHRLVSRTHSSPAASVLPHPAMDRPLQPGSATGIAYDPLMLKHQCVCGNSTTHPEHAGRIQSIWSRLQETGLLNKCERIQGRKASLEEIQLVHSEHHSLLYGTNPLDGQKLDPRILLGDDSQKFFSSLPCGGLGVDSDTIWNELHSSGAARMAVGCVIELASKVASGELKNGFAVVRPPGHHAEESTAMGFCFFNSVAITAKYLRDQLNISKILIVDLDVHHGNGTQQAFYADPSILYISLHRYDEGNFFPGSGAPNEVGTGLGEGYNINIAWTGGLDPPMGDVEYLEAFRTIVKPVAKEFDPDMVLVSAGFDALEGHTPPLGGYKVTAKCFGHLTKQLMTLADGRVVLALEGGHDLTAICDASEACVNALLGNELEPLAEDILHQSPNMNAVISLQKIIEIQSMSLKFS
# TEST METHOD NOTES: in vitro activity-based HDAC assay
# PROTOCOL CONDITIONS: human HDAC isoform panel, Table 1

Observe how each entry below is paired with its result.
O=C(NO)c1ccc(CN(Cc2cccnc2)S(=O)(=O)c2cc(F)c(F)c(F)c2F)cc1 [Compound I-18]; > 1 µM
O=C(NO)c1ccc(CN(C2CC2)S(=O)(=O)c2cc(F)c(F)c(F)c2F)cc1 [Compound I-13]; > 1 µM

// IC50 lookup, key: CC(C)N(Cc1ccc(C(=O)NO)cc1F)S(=O)(=O)c1cc(F)c(F)c(F)c1F [Compound I-50] > 1 µM

###

# System: MV-4-11
# TEST METHOD NOTES: Cytotoxicity in cell lines
# Type: cell-based
# PROTOCOL CONDITIONS: Homo sapiens, MV4-11, read-out: IC50 MV-411
REPORTED ENDPOINT: IC50 (nM)
Report only the number, with the unit nM understood.

// IC50 lookup, key: O=C(CCCCCCNC(=O)c1cnc(N(c2ccccc2)c2ccccc2)nc1)NO [Ricolinostat, reference compound] 656

###

# TEST METHOD NOTES: Plasma stability by LC-MS
# Type: in vitro ADME
# PROTOCOL CONDITIONS: mouse plasma
Measured half-life accompanies every entry in the list below.
Report only the number, with the unit h understood.

Observe how each entry below is paired with its result.
O=C(NO)c1ccc(CN(Cc2cccnc2)S(=O)(=O)c2cc(F)c(F)c(F)c2F)cc1; 1.82
O=C(/C=C/c1cccc(S(=O)(=O)Nc2ccccc2)c1)NO; 2.35

// half-life lookup, key: `O=C(CCCCCCC(=O)Nc1ccccc1)NO` 1.98
